Heads up, these compounds all have Ki values measured for JAK3 (Homo sapiens, UniProt P52333).

[in] Provide Ki, recorded with JAK3 (Homo sapiens, UniProt P52333), of CCN(CC)CCN(C)C(=O)c1ccc(-c2cnc3c(-c4ccccn4)c(N)nn3c2)nc1
Sequence (P52333 whole entry, species assumed): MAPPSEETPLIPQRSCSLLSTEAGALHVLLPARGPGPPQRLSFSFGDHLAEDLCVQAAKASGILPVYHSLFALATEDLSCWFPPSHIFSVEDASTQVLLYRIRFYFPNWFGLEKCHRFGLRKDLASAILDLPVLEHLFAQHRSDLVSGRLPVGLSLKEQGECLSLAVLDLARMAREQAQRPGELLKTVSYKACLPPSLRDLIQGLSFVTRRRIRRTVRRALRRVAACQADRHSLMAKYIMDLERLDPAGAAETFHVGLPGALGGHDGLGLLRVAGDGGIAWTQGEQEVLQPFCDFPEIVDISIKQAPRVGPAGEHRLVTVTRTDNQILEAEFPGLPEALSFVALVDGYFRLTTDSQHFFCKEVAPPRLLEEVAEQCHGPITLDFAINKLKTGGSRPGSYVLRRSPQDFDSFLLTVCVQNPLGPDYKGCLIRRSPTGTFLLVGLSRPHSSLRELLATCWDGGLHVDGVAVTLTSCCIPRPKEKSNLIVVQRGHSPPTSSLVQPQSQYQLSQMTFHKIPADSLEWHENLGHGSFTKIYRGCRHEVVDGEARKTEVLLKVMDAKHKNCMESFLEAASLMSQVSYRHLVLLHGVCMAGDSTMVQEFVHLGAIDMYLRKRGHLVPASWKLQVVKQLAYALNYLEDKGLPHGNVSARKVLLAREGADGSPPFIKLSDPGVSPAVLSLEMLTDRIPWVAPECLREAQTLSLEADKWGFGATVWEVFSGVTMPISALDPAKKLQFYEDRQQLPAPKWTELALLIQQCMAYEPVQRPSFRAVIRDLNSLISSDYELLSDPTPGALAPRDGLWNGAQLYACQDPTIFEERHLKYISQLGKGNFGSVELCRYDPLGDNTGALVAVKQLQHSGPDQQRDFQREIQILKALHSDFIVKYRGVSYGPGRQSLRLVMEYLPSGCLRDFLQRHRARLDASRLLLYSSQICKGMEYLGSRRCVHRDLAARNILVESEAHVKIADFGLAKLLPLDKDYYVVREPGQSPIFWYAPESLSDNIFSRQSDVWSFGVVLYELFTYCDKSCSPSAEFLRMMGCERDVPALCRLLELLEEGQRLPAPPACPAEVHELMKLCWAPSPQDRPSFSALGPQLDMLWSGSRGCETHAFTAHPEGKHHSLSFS
[out] 0.5 to 5 µM

----------
Heads up, these compounds all have Ki values measured for c-Met (Homo sapiens).

Recorded results for 7 compounds are shown here.
{"compound": "Nc1nn2cc(-c3ccccc3[N+](=O)[O-])cnc2c1-c1ccccn1 [Compound V-21]", "measuredOn": "c-Met (Homo sapiens)", "Ki": "500 to 5000 nM"}
{"compound": "C#CCN(C)C(=O)c1cccc(-c2cnc3c(-c4ccccn4)c(N)nn3c2)n1 [Compound V-106]", "measuredOn": "c-Met (Homo sapiens)", "Ki": "< 500 nM"}
{"compound": "CN(CCc1ccccn1)c1ccc(-c2cnc3c(-c4ccccn4)c(N)nn3c2)cn1 [Compound V-168]", "measuredOn": "c-Met (Homo sapiens)", "Ki": "500 to 5000 nM"}
{"compound": "CCN(CC)CCN(C)CCCc1cnc2c(-c3ccccn3)c(N)nn2c1 [Compound V-321]", "measuredOn": "c-Met (Homo sapiens)", "Ki": "500 to 5000 nM"}
{"compound": "CN(Cc1ccccc1)C(=O)c1c(N)nn2cc(-c3ccncn3)cnc12 [Compound V-41]", "measuredOn": "c-Met (Homo sapiens)", "Ki": "500 to 5000 nM"}
{"compound": "Cc1cnc2c(-c3cc(NCC4CCCO4)ncn3)c(N)nn2c1 (centres unmarked) [Compound V-278]", "measuredOn": "c-Met (Homo sapiens)", "Ki": "< 500 nM"}
{"compound": "CCN(CCCCN)C(=O)c1ccc(-c2cnc3c(-c4ccccn4)c(N)nn3c2)nc1 [Compound V-74]", "measuredOn": "c-Met (Homo sapiens)", "Ki": "< 500 nM"}

The record that follows has no Ki shown yet.
[in] Provide Ki, recorded with c-Met (Homo sapiens), of Nc1nn2cc(-c3cccnc3N3CCC(CCO)CC3)cnc2c1-c1ccccn1 [Compound V-271]
[out] 500 to 5000 nM

----------
Heads up, these compounds all have Ki values measured for c-Met (Homo sapiens, UniProt P08581).

[in] Provide Ki, recorded with c-Met (Homo sapiens, UniProt P08581), of Cc1cnc2c(-c3cc(N4CCC(S(C)(=O)=O)C4)ncn3)c(N)nn2c1 (stereo not drawn)
Sequence (P08581 25-1390): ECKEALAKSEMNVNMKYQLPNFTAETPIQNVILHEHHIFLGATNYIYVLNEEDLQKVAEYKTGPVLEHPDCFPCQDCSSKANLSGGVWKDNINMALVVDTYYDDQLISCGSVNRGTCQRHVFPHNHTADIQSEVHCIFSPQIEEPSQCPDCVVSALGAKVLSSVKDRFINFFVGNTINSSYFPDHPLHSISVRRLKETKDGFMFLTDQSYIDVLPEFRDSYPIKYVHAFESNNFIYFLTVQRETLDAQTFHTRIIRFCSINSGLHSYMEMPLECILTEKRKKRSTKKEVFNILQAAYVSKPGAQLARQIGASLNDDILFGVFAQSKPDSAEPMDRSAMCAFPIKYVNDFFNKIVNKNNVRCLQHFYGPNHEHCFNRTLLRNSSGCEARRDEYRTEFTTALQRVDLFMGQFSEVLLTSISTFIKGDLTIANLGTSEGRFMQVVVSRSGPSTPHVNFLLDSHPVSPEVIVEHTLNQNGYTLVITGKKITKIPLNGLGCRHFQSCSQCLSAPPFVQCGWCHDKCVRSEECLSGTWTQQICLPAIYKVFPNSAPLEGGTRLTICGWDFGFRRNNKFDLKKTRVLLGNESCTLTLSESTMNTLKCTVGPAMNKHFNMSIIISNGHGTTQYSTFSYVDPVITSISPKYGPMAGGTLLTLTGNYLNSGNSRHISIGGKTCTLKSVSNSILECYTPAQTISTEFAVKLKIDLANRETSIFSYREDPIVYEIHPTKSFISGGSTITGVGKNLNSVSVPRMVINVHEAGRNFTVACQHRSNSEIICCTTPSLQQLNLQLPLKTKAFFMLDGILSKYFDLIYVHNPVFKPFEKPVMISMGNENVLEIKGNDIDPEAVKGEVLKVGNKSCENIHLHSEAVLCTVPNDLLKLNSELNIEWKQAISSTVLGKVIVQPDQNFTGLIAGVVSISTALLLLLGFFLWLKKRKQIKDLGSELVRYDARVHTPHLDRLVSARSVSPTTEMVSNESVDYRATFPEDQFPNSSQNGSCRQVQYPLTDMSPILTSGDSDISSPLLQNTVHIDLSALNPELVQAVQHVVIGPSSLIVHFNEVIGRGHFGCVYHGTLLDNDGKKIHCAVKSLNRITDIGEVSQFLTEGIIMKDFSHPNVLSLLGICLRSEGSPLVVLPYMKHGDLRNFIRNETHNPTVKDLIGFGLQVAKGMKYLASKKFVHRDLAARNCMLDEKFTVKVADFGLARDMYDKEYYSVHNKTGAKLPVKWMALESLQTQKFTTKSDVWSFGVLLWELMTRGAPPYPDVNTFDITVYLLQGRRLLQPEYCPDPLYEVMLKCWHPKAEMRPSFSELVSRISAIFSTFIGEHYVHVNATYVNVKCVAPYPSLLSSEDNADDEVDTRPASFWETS
[out] < 500 nM

[in] Provide Ki, recorded with c-Met (Homo sapiens, UniProt P08581), of Cc1ccc(-c2cnc3c(-c4ccccc4Br)c(N)nn3c2)cc1
[out] 500 to 5000 nM

[in] Provide Ki, recorded with c-Met (Homo sapiens, UniProt P08581), of CN(C)Cc1ccccc1-c1cnc2c(-c3ccccn3)c(N)nn2c1
[out] 500 to 5000 nM

----------
measuredOn: Itk (Homo sapiens, UniProt Q08881)
Sequence (Q08881 1-620): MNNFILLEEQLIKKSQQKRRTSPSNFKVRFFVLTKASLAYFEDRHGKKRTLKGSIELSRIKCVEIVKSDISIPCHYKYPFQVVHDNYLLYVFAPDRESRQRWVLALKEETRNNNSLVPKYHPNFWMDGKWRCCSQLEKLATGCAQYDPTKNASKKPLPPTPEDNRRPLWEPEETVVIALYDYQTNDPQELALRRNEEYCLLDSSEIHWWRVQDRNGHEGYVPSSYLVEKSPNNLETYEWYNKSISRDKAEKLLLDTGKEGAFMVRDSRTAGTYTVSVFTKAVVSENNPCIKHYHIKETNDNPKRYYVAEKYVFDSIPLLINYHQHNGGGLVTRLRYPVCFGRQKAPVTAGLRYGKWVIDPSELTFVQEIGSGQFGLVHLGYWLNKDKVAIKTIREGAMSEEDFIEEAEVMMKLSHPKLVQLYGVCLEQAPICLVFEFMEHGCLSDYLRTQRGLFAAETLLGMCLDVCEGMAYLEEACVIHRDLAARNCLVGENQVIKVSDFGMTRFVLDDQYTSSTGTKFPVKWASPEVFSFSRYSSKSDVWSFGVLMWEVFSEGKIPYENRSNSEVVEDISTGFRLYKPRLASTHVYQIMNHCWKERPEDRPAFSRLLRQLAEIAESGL
assayReadout: Ki

{"compound": "Nc1ccc(CNC(=O)c2cnc3c(-c4ccccn4)c(N)nn3c2)cc1", "assayResult": "500 to 5000 nM"}
{"compound": "Nc1nn2cc(-c3ccc(C(=O)N4CCC[C@@H]4CO)cn3)cnc2c1-c1ccccn1", "assayResult": "< 500 nM"}
{"compound": "CCN(Cc1ccccn1)c1ncccc1-c1cnc2c(-c3ccccn3)c(N)nn2c1", "assayResult": "500 to 5000 nM"}
{"compound": "Nc1nn2cc(-c3ccc(C(=O)N4CCC(CCO)CC4)cn3)cnc2c1-c1ccccn1", "assayResult": "< 500 nM"}
{"compound": "CC[C@H](C)Nc1cc(-c2c(N)nn3cc(C)cnc23)ncn1", "assayResult": "500 to 5000 nM"}

The record that follows has no Ki shown yet.
[in] In one line, give reported Ki of the entry Cc1cnc2c(-c3cc(N[C@@H](C)C(C)C)ncn3)c(N)nn2c1 .
[out] < 500 nM

----------
measuredOn: Aurora-2 (Homo sapiens)
Sequence (O14965 1-403): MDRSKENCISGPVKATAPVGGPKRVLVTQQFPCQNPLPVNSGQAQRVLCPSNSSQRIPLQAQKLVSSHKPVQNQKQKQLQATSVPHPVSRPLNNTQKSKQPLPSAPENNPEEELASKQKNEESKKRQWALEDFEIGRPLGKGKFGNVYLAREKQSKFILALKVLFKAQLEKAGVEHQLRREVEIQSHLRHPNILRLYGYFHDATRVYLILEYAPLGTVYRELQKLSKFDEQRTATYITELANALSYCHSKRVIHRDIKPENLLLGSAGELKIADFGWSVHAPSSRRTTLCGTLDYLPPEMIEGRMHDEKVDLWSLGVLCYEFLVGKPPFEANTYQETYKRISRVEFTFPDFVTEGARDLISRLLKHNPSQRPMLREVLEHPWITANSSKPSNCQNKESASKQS
Entries and their Ki values follow.

Recorded results for 6 molecules are shown here.
{"molecule": "Nc1nn2cc(-c3ccc(C(=O)N4CCC(N)C4)cn3)cnc2c1-c1ccccn1 (stereo not shown)", "Ki": "< 500 nM"}
{"molecule": "Nc1nn2cc(-c3ccncc3)cnc2c1-c1cc(Nc2ccccc2)ncn1", "Ki": "< 500 nM"}
{"molecule": "Nc1nn2cc(-c3ccc(N4CCC[C@@H]4CN4CCCC4)nc3)cnc2c1-c1ccccn1", "Ki": "500 to 5000 nM"}
{"molecule": "Nc1nn2cc(-c3ccc(CNC4CCNCC4)cc3)cnc2c1-c1ccccn1", "Ki": "500 to 5000 nM"}
{"molecule": "NC1NN2C=C(c3cccc(CN4CC[C@H](N)C4)c3)C=NC2=C1c1ccccn1 (stereo partly shown)", "Ki": "500 to 5000 nM"}
{"molecule": "CS(=O)(=O)Nc1cccc(-c2cnc3c(-c4ccccn4)c(N)nn3c2)c1", "Ki": "< 500 nM"}

The record that follows has no Ki shown yet.
[in] In one line, give reported Ki of the entry Cc1cccc(-c2c(N)nn3cc(-c4ccncc4)cnc23)n1 .
[out] < 500 nM

----------
Heads up, these compounds all have pKi values measured for c-Met (Homo sapiens).
pKi: −log10 of the molar value.

Recorded results for 4 compounds are shown here.
{"compound": "Nc1nn2cc(-c3ccc(C(=O)N4CCC(N5CCCC5)CC4)cn3)cnc2c1-c1ccccn1 [Compound V-84]", "measuredOn": "c-Met (Homo sapiens)", "pKi": "> 6.30"}
{"compound": "CCCN(CCO)C(=O)c1ccc(-c2cnc3c(-c4ccccn4)c(N)nn3c2)nc1 [Compound V-92]", "measuredOn": "c-Met (Homo sapiens)", "pKi": "> 6.30"}
{"compound": "Cc1cnc2c(-c3cc(N4CCCC4C)ncn3)c(N)nn2c1 (stereo not shown) [Compound V-299]", "measuredOn": "c-Met (Homo sapiens)", "pKi": "> 6.30"}
{"compound": "CCCN(CCO)C(=O)c1cccc(-c2cnc3c(-c4ccccn4)c(N)nn3c2)n1 [Compound V-111]", "measuredOn": "c-Met (Homo sapiens)", "pKi": "> 6.30"}

[in] Provide pKi, recorded with c-Met (Homo sapiens), of CCCN(CCCN)C(=O)c1ccc(-c2cnc3c(-c4ccccn4)c(N)nn3c2)nc1 [Compound V-85]
[out] > 6.30

[in] Provide pKi, recorded with c-Met (Homo sapiens), of Nc1nn2cc(-c3cccc(C(=O)N4CCC(CCO)CC4)n3)cnc2c1-c1ccccn1 [Compound V-141]
[out] > 6.30

----------
Heads up, these compounds all have Ki values measured for JAK3 (Homo sapiens, UniProt P52333).

{"compound": "Nc1nn2cc(-c3cccnc3N3CCCC3)cnc2c1-c1ccccn1 [Compound V-258]", "measuredOn": "JAK3 (Homo sapiens, UniProt P52333)", "Ki": "> 5 µM"}
{"compound": "Nc1nn2cc(-c3ccc(N4CCOCC4)nc3)cnc2c1-c1ccccn1 [Compound V-144]", "measuredOn": "JAK3 (Homo sapiens, UniProt P52333)", "Ki": "> 5 µM"}
{"compound": "Nc1nn2cc(-c3cccnc3N3CCCC(CO)C3)cnc2c1-c1ccccn1 (stereo not drawn) [Compound V-270]", "measuredOn": "JAK3 (Homo sapiens, UniProt P52333)", "Ki": "> 5 µM"}
{"compound": "Cc1cnc2c(-c3cc(Nc4ccccc4)ncn3)c(N)nn2c1 [Compound V-279]", "measuredOn": "JAK3 (Homo sapiens, UniProt P52333)", "Ki": "< 0.5 µM"}
{"compound": "Nc1nn2cc(-c3ccncc3)cnc2c1-c1cc(NC2CCCCC2)ncn1 [Compound V-183]", "measuredOn": "JAK3 (Homo sapiens, UniProt P52333)", "Ki": "0.5 to 5 µM"}

The record that follows has no Ki shown yet.
[in] Provide Ki, recorded with JAK3 (Homo sapiens, UniProt P52333), of CC(C)(O)C#Cc1cnc2c(-c3ccccn3)c(N)nn2c1 [Compound V-237]
[out] 0.5 to 5 µM
